Hello, the source for this data is ChEMBL document CHEMBL1129583, in case you need it.

- System: Pneumocystis carinii
- Assay Text: Ratio of inhibitory concentration of rat liver and Pneumocystis carinii DHFR.

{"Smi": "Nc1nc(N)c2nc(CNc3ccc(Cl)c(Cl)c3)ccc2n1", "System": "Pneumocystis carinii", "Selectivity": 0.13}
{"Smi": "CN(Cc1ccc2nc(N)nc(N)c2n1)c1ccc(Cl)cc1Cl", "System": "Pneumocystis carinii", "Selectivity": 0.12}
{"Smi": "COc1cccc(N(C)Cc2ccc3nc(N)nc(N)c3n2)c1", "System": "Pneumocystis carinii", "Selectivity": 0.36}
{"Smi": "CN(Cc1ccc2nc(N)nc(N)c2n1)c1ccccc1", "System": "Pneumocystis carinii", "Selectivity": 0.08}
{"Smi": "CN(Cc1ccc2nc(N)nc(N)c2n1)c1cc(Cl)c(Cl)c(Cl)c1", "System": "Pneumocystis carinii", "Selectivity": 0.35}
{"Smi": "CC(=O)c1ccc(N(C)Cc2ccc3nc(N)nc(N)c3n2)cc1", "System": "Pneumocystis carinii", "Selectivity": 0.04}
{"Smi": "CN(Cc1ccc2nc(N)nc(N)c2n1)c1ccc2ccccc2c1", "System": "Pneumocystis carinii", "Selectivity": 0.14}
{"Smi": "COc1ccc(SCc2cnc3nc(N)nc(N)c3c2C)cc1", "System": "Pneumocystis carinii", "Selectivity": 0.93}
{"Smi": "CN(Cc1ccc2nc(N)nc(N)c2n1)c1c(Cl)cccc1Cl", "System": "Pneumocystis carinii", "Selectivity": 0.28}
{"Smi": "Nc1nc(N)c2nc(CNc3ccc(Cl)cc3Cl)ccc2n1", "System": "Pneumocystis carinii", "Selectivity": 0.12}
{"Smi": "COc1ccc(N(C)Cc2ccc3nc(N)nc(N)c3n2)c(OC)c1", "System": "Pneumocystis carinii", "Selectivity": 0.1}
{"Smi": "COc1ccc(NCc2ccc3nc(N)nc(N)c3n2)cc1", "System": "Pneumocystis carinii", "Selectivity": 0.09}

====

pIC50: recorded values
- System: Bifunctional dihydrofolate reductase-thymidylate synthase (Toxoplasma gondii, UniProt Q07422)
- Sequence (Q07422 whole entry): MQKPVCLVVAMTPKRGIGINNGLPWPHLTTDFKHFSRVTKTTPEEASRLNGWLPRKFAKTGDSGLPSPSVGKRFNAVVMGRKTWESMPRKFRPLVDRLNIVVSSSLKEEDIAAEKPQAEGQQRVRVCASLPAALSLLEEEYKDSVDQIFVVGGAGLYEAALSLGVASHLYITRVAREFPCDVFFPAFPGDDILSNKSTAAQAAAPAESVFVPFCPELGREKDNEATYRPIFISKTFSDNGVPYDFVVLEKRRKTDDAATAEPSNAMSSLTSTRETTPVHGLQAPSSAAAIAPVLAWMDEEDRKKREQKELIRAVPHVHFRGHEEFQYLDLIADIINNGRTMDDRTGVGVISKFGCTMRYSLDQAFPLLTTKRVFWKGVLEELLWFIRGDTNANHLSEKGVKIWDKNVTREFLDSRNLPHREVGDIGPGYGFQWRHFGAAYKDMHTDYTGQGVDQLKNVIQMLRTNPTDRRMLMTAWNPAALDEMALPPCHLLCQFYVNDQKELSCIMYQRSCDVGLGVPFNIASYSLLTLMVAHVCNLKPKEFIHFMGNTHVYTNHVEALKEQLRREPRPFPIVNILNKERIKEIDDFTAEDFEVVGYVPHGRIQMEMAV
pIC50: −log10 of the molar value.
Quantity Measured: pIC50

{"Smi": "CN(Cc1ccc2nc(N)nc(N)c2n1)c1ccc(Cl)c(Cl)c1", "Quantity Measured": "pIC50", "Reported Measurement": 7.57}
{"Smi": "CN(Cc1ccc2nc(N)nc(N)c2n1)c1cc(Cl)ccc1Cl", "Quantity Measured": "pIC50", "Reported Measurement": 7.60}
{"Smi": "CN(Cc1ccc2nc(N)nc(N)c2n1)c1ccc(Cl)cc1Cl", "Quantity Measured": "pIC50", "Reported Measurement": 7.30}
{"Smi": "CN(Cc1ccc2nc(N)nc(N)c2n1)c1cc(Cl)c(Cl)c(Cl)c1", "Quantity Measured": "pIC50", "Reported Measurement": 7.42}
{"Smi": "Nc1nc(N)c2nc(CNc3cc(Cl)ccc3Cl)ccc2n1", "Quantity Measured": "pIC50", "Reported Measurement": 7.04}
{"Smi": "COc1ccccc1NCc1ccc2nc(N)nc(N)c2n1", "Quantity Measured": "pIC50", "Reported Measurement": 6.92}
{"Smi": "Nc1nc(N)c2nc(CSc3cccc4ccccc34)ccc2n1", "Quantity Measured": "pIC50", "Reported Measurement": 7.31}
{"Smi": "COc1ccc(NCc2ccc3nc(N)nc(N)c3n2)cc1OC", "Quantity Measured": "pIC50", "Reported Measurement": 7.05}
{"Smi": "COc1ccc(N(C)Cc2ccc3nc(N)nc(N)c3n2)c(OC)c1", "Quantity Measured": "pIC50", "Reported Measurement": 7.85}
{"Smi": "Nc1nc(N)c2nc(CNc3c(Cl)cc(Cl)cc3Cl)ccc2n1", "Quantity Measured": "pIC50", "Reported Measurement": 7.34}
{"Smi": "COc1ccc(NCc2ccc3nc(N)nc(N)c3n2)c(OC)c1", "Quantity Measured": "pIC50", "Reported Measurement": 6.85}
{"Smi": "Nc1nc(N)c2nc(CNc3ccc(Cl)cc3Cl)ccc2n1", "Quantity Measured": "pIC50", "Reported Measurement": 7.30}

====

Reported pIC50, Dihydrofolate reductase (Rattus norvegicus).
pIC50: −log10 of the molar value.
Quantity Measured: pIC50

{"Smi": "COc1ccc(NCc2ccc3nc(N)nc(N)c3n2)c(OC)c1", "Reported Measurement": 6.49}
{"Smi": "CN(Cc1ccc2nc(N)nc(N)c2n1)c1ccc2ccccc2c1", "Reported Measurement": 8.14}
{"Smi": "Nc1nc(N)c2nc(CNc3ccccc3)ccc2n1", "Reported Measurement": 6.59}
{"Smi": "COc1ccc(N(C)Cc2ccc3nc(N)nc(N)c3n2)cc1", "Reported Measurement": 7.74}

====

- Tested on: Pneumocystis carinii
- Assay Text: Ratio of inhibitory concentration of rat liver and Pneumocystis carinii DHFR.
Quantity Measured: Selectivity

{"Smi": "COc1cc(NCc2ccc3nc(N)nc(N)c3n2)cc(OC)c1OC", "System": "Pneumocystis carinii", "Reported Measurement": 0.1}
{"Smi": "C#CCN(Cc1ccc2nc(N)nc(N)c2n1)c1ccc(C(C)=O)cc1", "System": "Pneumocystis carinii", "Reported Measurement": 0.07}
{"Smi": "COc1cc(N(C)Cc2ccc3nc(N)nc(N)c3n2)cc(OC)c1OC", "System": "Pneumocystis carinii", "Reported Measurement": 0.2}
{"Smi": "Nc1nc(N)c2nc(CNc3ccccc3)ccc2n1", "System": "Pneumocystis carinii", "Reported Measurement": 0.15}
